Molecular target: Glycogen synthase kinase-3 alpha (Homo sapiens)
Sequence (P49840 whole entry): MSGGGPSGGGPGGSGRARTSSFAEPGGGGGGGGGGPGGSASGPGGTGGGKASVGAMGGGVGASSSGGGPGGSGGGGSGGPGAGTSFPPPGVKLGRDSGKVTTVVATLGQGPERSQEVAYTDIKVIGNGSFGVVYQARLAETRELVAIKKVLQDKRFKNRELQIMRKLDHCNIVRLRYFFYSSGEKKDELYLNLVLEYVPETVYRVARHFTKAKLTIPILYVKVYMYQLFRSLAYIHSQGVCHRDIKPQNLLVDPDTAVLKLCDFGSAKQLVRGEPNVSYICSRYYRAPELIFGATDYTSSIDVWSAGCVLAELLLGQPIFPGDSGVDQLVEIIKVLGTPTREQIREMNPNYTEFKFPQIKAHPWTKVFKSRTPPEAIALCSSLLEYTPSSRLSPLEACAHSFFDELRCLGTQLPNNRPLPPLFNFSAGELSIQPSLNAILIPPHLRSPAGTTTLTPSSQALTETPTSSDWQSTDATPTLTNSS
We begin with a simple list: items and their reported IC50.

Here is how some molecules turned out for IC50.
CC1(C)CC(=O)C2=C(C1)NC1=C(CN=N1)C21CCCCC1=O (stereo unspecified)	> 5000 nM
CC1(C)CC(=O)C2=C(C1)NC1=C(CN=N1)C21CCN(S(=O)(=O)c2ccccc2Cl)CC1	< 100 nM
CCC1(c2cccc(S(=O)(=O)C3CC3)c2)C2=C(CC(C)(C)NC2=O)NC2N=NC(C)=C21 (stereo unspecified)	< 100 nM
CC[C@]1(c2cccc(N(C)c3ncccn3)c2)C2=CN=NC2NC2=C1C(=O)CC(C)(C)C2 (stereo partly specified)	< 100 nM
CC[C@]1(c2cccc(S(=O)(=O)C3CC3)c2)C2=CN=NC2NC2=C1C(=O)N(C)C(C)(C)C2 (stereo partly specified)	1000 to 5000 nM

Could you now look at the following molecule, please?
Request: Please provide the recorded IC50 for CC[C@@]1(c2cccc([C@H]3CCOC3)c2)C2=CN=NC2NC2=C1C(=O)CC(C)(C)C2 (stereo partly specified) , tested on Glycogen synthase kinase-3 alpha (Homo sapiens).
Response: < 100 nM

---

Target: UniProt P49841
Sequence (P49841 whole entry): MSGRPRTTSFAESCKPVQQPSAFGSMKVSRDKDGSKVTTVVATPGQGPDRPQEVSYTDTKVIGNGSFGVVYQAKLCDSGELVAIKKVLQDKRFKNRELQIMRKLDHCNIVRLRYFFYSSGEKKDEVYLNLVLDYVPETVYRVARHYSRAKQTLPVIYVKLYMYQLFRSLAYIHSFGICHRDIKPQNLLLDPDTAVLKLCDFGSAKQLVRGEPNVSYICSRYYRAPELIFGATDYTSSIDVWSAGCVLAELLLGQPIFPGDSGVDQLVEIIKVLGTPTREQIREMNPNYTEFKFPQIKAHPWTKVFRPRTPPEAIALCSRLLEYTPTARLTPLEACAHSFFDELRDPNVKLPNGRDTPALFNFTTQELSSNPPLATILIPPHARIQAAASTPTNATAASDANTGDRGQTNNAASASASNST
Test: TR-FRET Assay
pIC50: −log10 of the molar value.
PROPERTY: pIC50

Here is how some compounds turned out for pIC50.
CC[C@]1(c2cccc(Cl)c2)C2=C(CC(C)(C)CC2=O)NC2N=NC(C)=C21 (stereo partly drawn) [US20250313563, Compound 790612]	> 7.00
CC[C@]1(c2cccc(-c3ccnn3-c3ccc(F)cc3)c2)C2=CN=NC2NC2=C1C(=O)NC(C)(C)C2 (stereo partly drawn) [US20250313563, Compound 949396]	< 5.30

Could you now look at the following compound, please?
Request: Please provide the recorded pIC50 for CC[C@]1(c2cccc(NS(C)(=O)=O)c2)C2=CN=NC2NC2=C1C(=O)CC(C)(C)C2 (stereo partly drawn) [US20250313563, Compound 927341] , tested on UniProt P49841.
Response: 5.30 to 6.00

---

// endpoint IC50 / system UniProt P49841

CC[C@@]1(c2cccc(-c3cc(C)ncc3C)c2)C2=C(CC(C)(C)NC2=O)NC2N=NC(C(F)(F)F)=C21 (stereo partly specified)	100 to 1000 nM
CCC1(c2cccc(S(=O)(=O)C3CCOC3)c2)C2=CN=NC2NC2=C1C(=O)CC(C)(C)C2 (stereo unspecified)	< 100 nM
CCC1(c2cccc(-c3cc(C)ncc3F)c2)C2=CN=NC2NC2=C1C(=O)CC(C)(C)C2 (stereo unspecified)	< 100 nM
CC[C@@]1(c2cccc(-c3cc[n+]([O-])cc3[S+](C)[O-])c2)C2=CN=NC2NC2=C1C(=O)CC(C)(C)C2 (stereo partly specified)	1000 to 5000 nM
CC[C@@H]1CCN1c1cccc([C@@]2(CC)C3=CN=NC3NC3=C2C(=O)CC(C)(C)C3)c1 (stereo partly specified)	100 to 1000 nM

Could you now look at the following compound, please?
Request: What measured IC50 goes with CCC1(c2cccc(-c3cn(C)nc3C)c2)C2=C(CC(C)(C)NC2=O)NC2N=NC(C)=C21 (stereo unspecified) ?
Response: < 100 nM

---

Target: UniProt P49840
We begin with a simple list: items and their reported IC50.

Request: Please provide the recorded IC50 for CC[C@@]1(c2ccc(OC(C)C)cc2)C2=C(CC(C)(C)CC2=O)NC2N=NC(C(F)(F)F)=C21 (stereo partly drawn) , tested on UniProt P49840.
Response: 100 to 1000 nM

Request: And then COc1ccc(S(=O)(=O)N2CCC3(CC2)C2=C(N=NC2)NC2=C3C(=O)CC(C)(C)C2)cc1 [US20250313563, Compound 901469] , what is it?
Response: 100 to 1000 nM

Request: And then CC[C@@]1(c2cccc(-c3ccnc(OC)c3F)c2)C2=CN=NC2NC2=C1C(=O)NC(C)(C)C2 (stereo partly drawn) , what is it?
Response: 100 to 1000 nM

Request: And then CC[C@]1(c2cccc(N3CCCC[C@H]3C)c2)C2=CN=NC2NC2=C1C(=O)CC(C)(C)C2 (stereo partly drawn) , what is it?
Response: < 100 nM

Request: And then CC[C@]1(c2cccc(-c3ccncc3C)c2)C2=CN=NC2NC2=C1C(=O)N[C@]1(CCCOC1)C2 (stereo partly drawn) , what is it?
Response: < 100 nM

Request: And then CCC1(c2cccc(N(C)c3ccc(C(F)(F)F)nc3)c2)C2=CN=NC2NC2=C1C(=O)CC(C)(C)C2 (stereo not drawn) , what is it?
Response: < 100 nM
